From: patent US4215069A

System: milkweed bug (Oncopeltus faciatus [Dallas])
Assay: Initial contact activity against milkweed bug (percent kill)
Type: in vivo
Conditions: 312 ppm, 72 hours exposure, read-out: Percent Kill MWB, initial activity
I'd be grateful if you could share measured mortality at 312 ppm for these entries.

(Q) For CC1(C)C(C=C(Cl)Sc2ccccc2)C1C(=O)OCc1cccc(Oc2ccccc2)c1 (mixture of isomers) , write its mortality at 312 ppm.
(A) 90%

(Q) For CC1(C)C(C=CSc2ccc(F)cc2)C1C(=O)OCc1cccc(Oc2ccccc2)c1 (mixture of isomers) , write its mortality at 312 ppm.
(A) 5%

(Q) For CC1(C)C(C=C(Br)Sc2ccccc2)C1C(=O)OCc1cccc(Oc2ccccc2)c1 (mixture of isomers) , write its mortality at 312 ppm.
(A) 71%
